Taken from BigSolDB 2.1.

details: in methyl acetate, 323.15 K
MEASURED PARAMETER: solubility (mole fraction)
Answer using only a numeral; do not append any unit.

In plain terms, `Cn1cc([N+](=O)[O-])cn1` has a documented solubility (mole fraction) of 0.0519

---

conditions: in acetonitrile, 288.15 K
MEASURED PARAMETER: solubility (mole fraction)
The response must contain the number and no unit.

So, `Cn1cc([N+](=O)[O-])cn1` ? Its solubility (mole fraction) was 0.00334

---

settings: in sec-butanol, 308.15 K
MEASURED PARAMETER: solubility (mole fraction)
Form: value (number only, do not type unit).

# molecule `Cn1cc([N+](=O)[O-])cn1` ; its solubility (mole fraction) = 0.00287

---

settings: in water, 323.15 K
MEASURED PARAMETER: solubility (mole fraction)
Keep it simple and answer with nothing but the number.

// sample `Cn1cc([N+](=O)[O-])cn1` , its solubility (mole fraction) was 0.000331

---

conditions: in ethyl acetate, 293.15 K
MEASURED PARAMETER: solubility (mole fraction)

# compound `Cn1cc([N+](=O)[O-])cn1` ; its solubility (mole fraction) = 0.0162

---

settings: in toluene, 318.15 K
MEASURED PARAMETER: solubility (mole fraction)
API doc: respond with a numeric literal and nothing else, no unit.

`Cn1cc([N+](=O)[O-])cn1` has a reported solubility (mole fraction) of 0.0232

---

settings: in toluene, 283.15 K
MEASURED PARAMETER: solubility (mole fraction)

// solubility (mole fraction) value for `Cn1cc([N+](=O)[O-])cn1` : 0.00714

---

settings: in acetonitrile, 308.15 K
MEASURED PARAMETER: solubility (mole fraction)
API doc: respond with a numeric literal and nothing else, no unit.

Value of solubility (mole fraction) reported for the compound `Cn1cc([N+](=O)[O-])cn1` is 0.00673

---

settings: in ethanol, 308.15 K
MEASURED PARAMETER: solubility (mole fraction)
Answer with a bare number; do not write a unit.

Please fill in: solubility (mole fraction) reported for `Cn1cc([N+](=O)[O-])cn1` = 0.00694

---

details: in toluene, 293.15 K
MEASURED PARAMETER: solubility (mole fraction)
Note: the reply should be a number with no unit written.

solubility (mole fraction) reading for `Cn1cc([N+](=O)[O-])cn1` : 0.0095

---

conditions: in methanol, 303.15 K
MEASURED PARAMETER: solubility (mole fraction)

The recorded solubility (mole fraction) for entry `Cn1cc([N+](=O)[O-])cn1` equals 0.00923

---

settings: in 2-butanone, 298.15 K
MEASURED PARAMETER: solubility (mole fraction)
// response body must contain only the number

The value of solubility (mole fraction) measured for the compound `Cn1cc([N+](=O)[O-])cn1` turned out to be 0.0139

---

settings: in acetonitrile, 303.15 K
MEASURED PARAMETER: solubility (mole fraction)
Just the number, please, no unit attached.

Sure, the documented solubility (mole fraction) for `Cn1cc([N+](=O)[O-])cn1` is 0.006

---

conditions: in sec-butanol, 288.15 K
MEASURED PARAMETER: solubility (mole fraction)
Provide a numeric answer; units are not to be included.

`Cn1cc([N+](=O)[O-])cn1` has a reported solubility (mole fraction) of 0.000891

---

settings: in acetonitrile, 318.15 K
MEASURED PARAMETER: solubility (mole fraction)
Please give the numeric answer without any surrounding text.

For this compound ( `Cn1cc([N+](=O)[O-])cn1` ), measured solubility (mole fraction) is 0.00937

---

details: in isopropanol, 313.15 K
MEASURED PARAMETER: solubility (mole fraction)

Notebook: `Cn1cc([N+](=O)[O-])cn1` , solubility (mole fraction) read as 0.00697

---

details: in ethanol, 323.15 K
MEASURED PARAMETER: solubility (mole fraction)

Reported solubility (mole fraction) ( `Cn1cc([N+](=O)[O-])cn1` ) = 0.00823

---

settings: in acetonitrile, 323.15 K
MEASURED PARAMETER: solubility (mole fraction)
Write the value as a bare number.

solubility (mole fraction) reading for `Cn1cc([N+](=O)[O-])cn1` : 0.0117

---

conditions: in sec-butanol, 298.15 K
MEASURED PARAMETER: solubility (mole fraction)
Would you mind answering with just the numeric figure?

Noted for `Cn1cc([N+](=O)[O-])cn1` : its solubility (mole fraction) reads 0.00151

---

conditions: in acetone, 313.15 K
MEASURED PARAMETER: solubility (mole fraction)
// no unit string in output, number only

Just so you know, measured solubility (mole fraction) for `Cn1cc([N+](=O)[O-])cn1` came out at 0.0814
